- Measured on: Cytochrome P450 1A2 (Homo sapiens)
- Sequence (P05177 whole entry): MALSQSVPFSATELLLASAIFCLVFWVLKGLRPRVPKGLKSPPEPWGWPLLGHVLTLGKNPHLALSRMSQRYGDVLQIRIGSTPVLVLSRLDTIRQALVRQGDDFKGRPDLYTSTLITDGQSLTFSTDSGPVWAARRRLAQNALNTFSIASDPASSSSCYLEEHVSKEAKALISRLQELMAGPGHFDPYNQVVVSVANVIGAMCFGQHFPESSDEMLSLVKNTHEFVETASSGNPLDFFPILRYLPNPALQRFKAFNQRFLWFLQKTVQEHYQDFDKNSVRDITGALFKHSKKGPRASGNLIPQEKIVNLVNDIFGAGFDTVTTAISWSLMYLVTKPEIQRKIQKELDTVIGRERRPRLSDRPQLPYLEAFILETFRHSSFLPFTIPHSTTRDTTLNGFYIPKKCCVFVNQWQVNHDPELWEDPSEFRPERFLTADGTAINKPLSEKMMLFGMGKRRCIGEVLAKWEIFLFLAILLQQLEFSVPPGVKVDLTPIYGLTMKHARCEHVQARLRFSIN
pIC50: −log10 of the molar value.
Assay metric: pIC50

{"Smiles structure": "C[C@@H]1c2nnn(-c3cc(F)ccn3)c2CCN1C(=O)c1cccc(C(F)(F)F)c1Cl", "pIC50": "< 5.00"}

# next molecule below
Fill blank: measured pIC50 of the molecule C[C@@H]1c2nnn(-c3ncccn3)c2CCN1C(=O)c1cccc(C(F)(F)F)c1Cl is ____.
< 5.00

----------
- Procedure summary: Clearance in cynomolgus monkey at 1 mg/kg, iv or 5 mg/kg, po by LC-MS/MS analysis
- Assay type: ADME, organism-based, Macaca fascicularis
- Experimental setup: in vivo
Assay metric: clearance (mL/min/kg)

a = C[C@@H]1c2nnn(-c3ncc(F)cn3)c2CCN1C(=O)c1cccc(C(F)(F)F)c1Cl [JNJ-54175446]
b = C[C@@H]1c2nnn(-c3ncccn3)c2CCN1C(=O)c1cccc(C(F)(F)F)c1Cl
Which entry has a larger number for clearance, a or b ? Field: selected label. Fill in the label of the entry you choose.
b

Numbers sourced from ChEMBL document CHEMBL4052642.
